Parameter: inhibition at 50 µM. Scope: all listed entries.
Tested on: SARS-CoV-2
experiment description: Antiviral activity against SARS-CoV-2 Omicron BA.2 pseudovirus infected in human 293T/ACE2 cells assessed as virus inhibition at 50 microM incubated for 24 hrs by firefly luciferase assay relative to control
Type: functional
run conditions: Severe acute respiratory syndrome coronavirus 2, Omicron BA.2, 293T/ACE2

{"molecule": "CC1=CC(=O)C=C[C@]2(C)[C@H]3[C@@H]4C=C(C)[C@@]56Oc7c(C)c(C)oc(=O)c7[C@@H]5O[C@@H](O4)[C@@]36CC[C@@H]12", "inhibition at 50 µM": "95%"}
{"molecule": "CC1=CC(=O)C=C[C@]2(C)[C@H]3CC=C(C)[C@@]45Oc6c(C)c(C)oc(=O)c6[C@@H]4O[C@@H](O)[C@@]35CC[C@@H]12", "inhibition at 50 µM": "28%"}
{"molecule": "CC1=CC(=O)C[C@@H]2O[C@@H]3C=C(C)[C@]4(Oc5c(C)c(C)oc(=O)c5[C@@H]4O)[C@]4(C)CC[C@@H]1[C@@]2(C)[C@@H]34", "inhibition at 50 µM": "43%"}
{"molecule": "CC1=CC(=O)[C@@H]2[C@@]3(C)[C@H](O)CC(=O)C(C)(C)[C@@H]3CC[C@@]2(C)[C@]12Cc1c(c(C)c(C)oc1=O)O2", "inhibition at 50 µM": "28%"}
{"molecule": "CC1=C[C@H](O)[C@@H]2[C@@]3(C)[C@H](O)C(=O)[C@H](O)C(C)(C)[C@@H]3CC[C@@]2(C)[C@]12Cc1c(c(C)c(C)oc1=O)O2", "inhibition at 50 µM": "11%"}
{"molecule": "CC1=CC(=O)[C@@H]2[C@@]3(C)C=CC(=O)C(C)(C)[C@@H]3CC[C@@]2(C)[C@]12Cc1c(c(C)c(C)oc1=O)O2", "inhibition at 50 µM": "23%"}
{"molecule": "CC1=CC(=O)C=C[C@]2(C)[C@H]3C(O)C=C(C)[C@@]4(Cc5c(c(C)c(C)oc5=O)O4)[C@]3(C)CC[C@@H]12 (some centres undefined)", "inhibition at 50 µM": "0%"}
{"molecule": "CC1=CC(=O)C[C@@H]2O[C@@H]3C=C(C)[C@@]4(Cc5c(c(C)c(C)oc5=O)O4)[C@]4(C)CC[C@@H]1[C@@]2(C)[C@@H]34", "inhibition at 50 µM": "0%"}
{"molecule": "CC(=O)/C(C)=C1\\C[C@H]2O[C@@H](O)[C@]34CC[C@H]5C(C)=CC(=O)C[C@@H]6O[C@H](C=C(C)[C@@]23O1)[C@@H]4[C@@]65C", "inhibition at 50 µM": "0%"}
{"molecule": "CC1=CC(=O)C[C@@H]2O[C@@H]3C=C(C)[C@@]45Oc6c(C)c(C)oc(=O)c6[C@@H]4OC[C@]54CC[C@@H]1[C@@]2(C)[C@@H]34", "inhibition at 50 µM": "16%"}
{"molecule": "CC1=C[C@H](O)[C@@H]2[C@@]3(C)C[C@@H](O)C(=O)C(C)(C)[C@@H]3CC[C@@]2(C)[C@]12Cc1c(c(C)c(C)oc1=O)O2", "inhibition at 50 µM": "0%"}
{"molecule": "CC(C)(C)c1ccc(S(=O)(=O)/C=C/C#N)cc1", "inhibition at 50 µM": "99%"}
{"molecule": "CC(=O)/C(C)=C1/C[C@H]2O[C@@H](O)[C@]34CC[C@H]5C(C)=CC(=O)C[C@@H]6O[C@H](C=C(C)[C@@]23O1)[C@@H]4[C@@]65C", "inhibition at 50 µM": "15%"}
{"molecule": "CC(=O)O[C@@H]1O[C@@H]2C/C(=C(/C)C(C)=O)O[C@]23C(C)=C[C@H]2O[C@H]4CC(=O)C=C(C)[C@@H]5CC[C@@]13[C@H]2[C@@]45C", "inhibition at 50 µM": "57%"}

* * *

experiment description: Cytotoxicity against human 293T/ACE2 cells assessed as cell viability at 100 microM incubated for 24 hrs by CellTiter assay relative to control
Format: functional
run conditions: read-out: Activity
Parameter: viability at 100 µM. Scope: all listed entries.

{"smiles": "CC1=C[C@H](O)[C@@H]2[C@@]3(C)C[C@@H](O)C(=O)C(C)(C)[C@@H]3CC[C@@]2(C)[C@]12Cc1c(c(C)c(C)oc1=O)O2", "viability at 100 µM (%)": 93}
{"smiles": "CC(=O)/C(C)=C1\\C[C@H]2O[C@@H](O)[C@]34CC[C@H]5C(C)=CC(=O)C[C@@H]6O[C@H](C=C(C)[C@@]23O1)[C@@H]4[C@@]65C", "viability at 100 µM (%)": 90}
{"smiles": "CC1=CC(=O)C=C[C@]2(C)[C@H]3C(=O)C=C(C)[C@]4(Oc5c(C)c(C)oc(=O)c5[C@@H]4O)[C@]3(C)CC[C@@H]12", "viability at 100 µM (%)": 98}
{"smiles": "CC1=CC(=O)C=C[C@]2(C)[C@H]3[C@@H](O)C=C(C)[C@@]4(Cc5c(c(C)c(C)oc5=O)O4)[C@]3(C)CC[C@@H]12", "viability at 100 µM (%)": 97}
{"smiles": "CC1=CC(=O)C[C@@H]2O[C@@H]3C=C(C)[C@@]45Oc6c(C)c(C)oc(=O)c6[C@@H]4OC[C@]54CC[C@@H]1[C@@]2(C)[C@@H]34", "viability at 100 µM (%)": 90}
{"smiles": "CC1=CC(=O)C[C@@H]2O[C@@H]3C=C(C)[C@]4(Oc5c(C)c(C)oc(=O)c5[C@@H]4O)[C@]4(C)CC[C@@H]1[C@@]2(C)[C@@H]34", "viability at 100 µM (%)": 92}
{"smiles": "CC1=CC(=O)C[C@@H]2O[C@@H]3C=C(C)[C@@]45Oc6c(C)c(C)oc(=O)c6[C@@H]4O[C@@H](O)[C@]54CC[C@@H]1[C@@]2(C)[C@@H]34", "viability at 100 µM (%)": 99}
{"smiles": "CC1=CC(=O)C=C[C@]2(C)[C@H]3[C@@H]4C=C(C)[C@@]56Oc7c(C)c(C)oc(=O)c7[C@@H]5O[C@@H](O4)[C@@]36CC[C@@H]12", "viability at 100 µM (%)": 94}
